- testedSystem: HLA-A*02:01 (Homo sapiens, UniProt P04439, D140Y/D185E/D98H/E176V/E277Q/G131W/G231S/I119V/I121R/I166T/I218V/L300P/L318F/N151K/N90K/P208A/P217A/Q86G/Q94H/R138H/R169H/T345S)
- experimentDescription: MHC binding assay (UV-ligand exchange, β2m ELISA)
- runParameters: peptide exchange yield
quantityMeasured: Peptide exchange (MHC class I binding score)

[
  {
    "substance": "5 (GLIDEVMVLL; listed as Homo sapiens) [compound 5]",
    "result": "++++ (>75% = ++++)"
  },
  {
    "substance": "12 (TILPGNLQSW; listed as Homo sapiens) [compound 12]",
    "result": "+ (>10% = +)"
  },
  {
    "substance": "17 (VLYDNTQLQL; listed as Homo sapiens) [compound 17]",
    "result": "++++ (>75% = ++++)"
  },
  {
    "substance": "11 (SIIDFTVTM; listed as Homo sapiens) [compound 11]",
    "result": "++++ (>75% = ++++)"
  },
  {
    "substance": "24 (ISAPLVKTL; listed as Homo sapiens) [compound 24]",
    "result": "+ (>10% = +)"
  },
  {
    "substance": "20 (VLQDELPQL; listed as Homo sapiens) [compound 20]",
    "result": "++++ (>75% = ++++)"
  },
  {
    "substance": "9 (RLAKLTAAV; listed as Homo sapiens) [compound 9]",
    "result": "++++ (>75% = ++++)"
  },
  {
    "substance": "3 (EMDSTVITV; listed as Homo sapiens) [compound 3]",
    "result": "+++ (>50 = +++)"
  }
]

# input I'd like to know its Peptide exchange (MHC class I binding score). The substance in question is 25 (NLSETASTMAL; listed as Homo sapiens) [compound 25]
# output ++++ (>75% = ++++)

# input Would you kindly share the measured Peptide exchange (MHC class I binding score) for 21 (IAFPTSISV; listed as Homo sapiens) [compound 21] ?
# output +++ (>50 = +++)

# input Param item = 32 (YVISQVFEI; listed as Homo sapiens) [compound 32] ; retrieve measured Peptide exchange (MHC class I binding score).
# output ++++ (>75% = ++++)
